Target: drIndy (Drosophila melanogaster, UniProt Q9VVT2)
Sequence (Q9VVT2 19-590): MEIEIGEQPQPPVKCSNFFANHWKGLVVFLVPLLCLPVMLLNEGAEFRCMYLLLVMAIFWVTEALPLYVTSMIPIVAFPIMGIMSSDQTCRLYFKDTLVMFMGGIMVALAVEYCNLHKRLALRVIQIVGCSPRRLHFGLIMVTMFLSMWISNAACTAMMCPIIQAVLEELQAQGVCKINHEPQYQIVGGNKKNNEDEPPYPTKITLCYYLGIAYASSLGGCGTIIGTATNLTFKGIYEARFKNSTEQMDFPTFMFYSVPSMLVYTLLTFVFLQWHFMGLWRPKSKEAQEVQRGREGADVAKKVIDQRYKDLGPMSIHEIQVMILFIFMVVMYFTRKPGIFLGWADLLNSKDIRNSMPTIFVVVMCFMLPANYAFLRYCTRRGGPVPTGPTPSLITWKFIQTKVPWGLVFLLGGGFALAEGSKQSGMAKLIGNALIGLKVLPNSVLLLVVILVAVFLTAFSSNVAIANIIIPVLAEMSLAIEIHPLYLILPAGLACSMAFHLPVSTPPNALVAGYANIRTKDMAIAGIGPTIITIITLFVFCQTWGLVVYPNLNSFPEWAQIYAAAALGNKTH
Output label 1 for % Control of cDNA-specific [^3H]succinate uptake not less than 6%; output label 0 otherwise.

# bool: % Control of cDNA-specific [^3H]succinate uptake of O=C(O)/C=C\C(=O)O [Maleate] >= 6%
label 1

Quick check: does O=C(O)CC(=O)O [Malonate, malonate] have % Control of cDNA-specific [^3H]succinate uptake greater than or equal to 6%?
label 1

Is % Control of cDNA-specific [^3H]succinate uptake at least 6%? Consider CC(O)C(=O)O (centres unmarked) [Lactate, lactate]
label 1

# check: % Control of cDNA-specific [^3H]succinate uptake of O=C(O)CCC(=O)C(=O)O [2-Oxoglutarate] is greater than or equal to 6%
label 0
